Cited source for all entries: paper PMC9609428

# System: carrageenan-induced paw edema
# PROCEDURE_TEXT: In vivo carrageenan-induced paw edema in mice
# EXPERIMENTAL_CONDITIONS: 10 µmol/kg b.wt po, 4 h after carrageenan
Please use Y for percentage anti-inflammatory activity (AI%), 4 h under 80% and N for everything else, ties included.

(Q) Is it true that percentage anti-inflammatory activity (AI%), 4 h reported for O=C(O)Cc1ccccc1Nc1c(Cl)cccc1Cl [Diclofenac, diclofenac, reference compound] is less than 80%?
(A) Y

(Q) Bench note: check whether CC(=NNC(=O)C(C)c1ccc(CC(C)C)cc1)c1nnn(-c2ccc(S(=O)(=O)Nc3nccs3)cc2)c1C (centres unmarked) [Compound 6b] shows percentage anti-inflammatory activity (AI%), 4 h below 80%
(A) N

(Q) hey, is percentage anti-inflammatory activity (AI%), 4 h for CC(=NNC(=O)Cc1ccccc1Nc1c(Cl)cccc1Cl)c1nnn(-c2ccc(S(=O)(=O)Nc3nccs3)cc2)c1C [Compound 6e] lower than 80% or not?
(A) Y
